Measurement target: T1, human Nectin-4 (human, UniProt Q96NY8 32-349)
T1 construct: a Gly32-Ser349 FLAG construct is described only under the SPR assay; also called PVRL4
T1 sequence (looked up): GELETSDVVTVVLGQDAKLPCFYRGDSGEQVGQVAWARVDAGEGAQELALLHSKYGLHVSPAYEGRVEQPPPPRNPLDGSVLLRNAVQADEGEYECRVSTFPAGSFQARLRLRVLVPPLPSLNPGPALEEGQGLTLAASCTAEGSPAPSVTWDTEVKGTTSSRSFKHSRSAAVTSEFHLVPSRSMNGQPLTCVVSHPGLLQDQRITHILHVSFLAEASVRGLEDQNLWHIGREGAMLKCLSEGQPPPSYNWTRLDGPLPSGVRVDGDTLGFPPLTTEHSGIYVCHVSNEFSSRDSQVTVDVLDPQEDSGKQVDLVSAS
Test protocol: FP competition, tracer SEQ ID NO 217
Procedure: Peptides were diluted to an appropriate concentration in assay buffer as described in the direct binding assay with a maximum of 5% DMSO, then serially diluted 1 in 2. […] Measurements were conducted as for the direct binding assay, however the gain was determined prior to the first measurement. Data analysis was in Systat Sigmaplot version 12.0 where the mP values were fit to a user defined cubic equation to generate a Ki value: […]
*1 amine or outer side, *2 acyl side, *3 side chain or, on linkers, in order; H or OH if unused. Bridges are numbered along the chain shown (N, C = ends). Where no end group is shown, it is not given here. [ ]: non-standard residue; d: D form. TATA = O=C(CC[*:1])N1CN(C(=O)CC[*:2])CN(C(=O)CC[*:3])C1
Metric: Ki (nM)

Binder	Metric	Readout number
ACPFGCMANWSWPIWCTNK (linker 2-6-16 via TATA, also called 80-09-02-T01-N026) [BCY7356]	Ki	43.4
QKWCAPLSXYWCNRIC (N-terminal Ac; TATA on 3 Cys) [BCY7640]	Ki	86
Ac-[dA]KWCAPLSDYWCNRIC (linker 4-12-16 via TATA) [BCY7634]	Ki	24
ACPFGCMKNWSWPIWCTNA (linker 2-6-16 via TATA, also called 80-09-02-T01-N018) [BCY7348]	Ki	20.6
Ac-CPFGCMKNWSWPIFC (linker 1-5-15 via TATA) [BCY7596]	Ki	353
ACPFGCMSDWSWPIWCSTD (linker 2-6-16 via TATA) [BCY3399]	Ki	410
